- System: Coagulase-negative staphylococci
- METHOD_DESCRIPTION: Broth microdilution MIC, European bacteraemia isolates 2010-2012
- Assay type: cell-based, coagulase-negative staphylococci (CoNS)
- CONDITION_DESCRIPTION: Coagulase-negative staphylococci (646); CLSI M100-S23 breakpoints
# cutoff 20% applies to % Resistant, CLSI; >= gives TRUE, < gives FALSE

{"COMPOUND": "CN(C)[C@@H]1C(O)=C(C(N)=O)C(=O)[C@@]2(O)C(O)=C3C(=O)c4c(O)cccc4[C@@](C)(O)[C@H]3C[C@@H]12 [Tetracycline]", "CLASS_NAME": "FALSE"}
{"COMPOUND": "CCC[C@@H]1C[C@@H](C(=O)N[C@@H]([C@H]2O[C@H](SC)[C@H](O)[C@@H](O)[C@H]2O)[C@H](C)Cl)N(C)C1 [Clindamycin]", "CLASS_NAME": "TRUE"}
{"COMPOUND": "CN[C@H](CC(C)C)C(=O)N[C@H]1C(=O)N[C@@H](CC(N)=O)C(=O)N[C@H]2C(=O)N[C@H]3C(=O)N[C@H](C(=O)N[C@H](C(=O)O)c4cc(O)cc(O)c4-c4cc3ccc4O)[C@H](O)c3ccc(c(Cl)c3)Oc3cc2cc(c3O[C@@H]2O[C@H](CO)[C@@H](O)[C@H](O)[C@H]2O[C@H]2C[C@](C)(N)[C@H](O)[C@H](C)O2)Oc2ccc(cc2Cl)[C@H]1O [Vancomycin, vancomycin]", "CLASS_NAME": "FALSE"}
{"COMPOUND": "CC[C@H]1OC(=O)[C@H](C)[C@@H](O[C@H]2C[C@@](C)(OC)[C@@H](O)[C@H](C)O2)[C@H](C)[C@@H](O[C@@H]2O[C@H](C)C[C@H](N(C)C)[C@H]2O)[C@](C)(O)C[C@@H](C)C(=O)[C@H](C)[C@@H](O)[C@]1(C)O [Erythromycin]", "CLASS_NAME": "TRUE"}
{"COMPOUND": "CC(=O)NC[C@H]1CN(c2ccc(N3CCOCC3)c(F)c2)C(=O)O1 [Linezolid, linezolid]", "CLASS_NAME": "FALSE"}
{"COMPOUND": "C[C@H]1COc2c(N3CCN(C)CC3)c(F)cc3c(=O)c(C(=O)O)cn1c23 [Levofloxacin]", "CLASS_NAME": "TRUE"}
{"COMPOUND": "Cc1onc(-c2ccccc2)c1C(=O)N[C@@H]1C(=O)N2[C@@H]1SC(C)(C)[C@@H]2C(=O)O [Oxacillin]", "CLASS_NAME": "TRUE"}
